measuredOn: human GPR17 receptor (Homo sapiens, UniProt Q13304)
Sequence (Q13304 whole entry): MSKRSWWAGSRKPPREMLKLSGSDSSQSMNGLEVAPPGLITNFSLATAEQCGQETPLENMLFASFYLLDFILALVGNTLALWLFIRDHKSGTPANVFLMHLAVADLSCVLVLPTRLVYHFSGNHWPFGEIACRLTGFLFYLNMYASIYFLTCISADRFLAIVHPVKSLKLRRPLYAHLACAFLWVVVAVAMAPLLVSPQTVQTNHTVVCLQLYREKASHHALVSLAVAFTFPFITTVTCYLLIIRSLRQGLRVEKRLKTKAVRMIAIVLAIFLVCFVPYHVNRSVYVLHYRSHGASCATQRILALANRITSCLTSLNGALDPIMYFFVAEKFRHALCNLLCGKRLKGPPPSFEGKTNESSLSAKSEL
protocolNotes: Calcium mobilization functional assay (Fluo-8, FLIPR TETRA) in HEK-293 hGPR17 (Gα-q assay)
runConditions: antagonism of MDL29,951 (~EC80) induced Ca2+ signal; cell line (HEK-293 hGPR17 or HEK-293 Suchi5 hGPR17) not given
reportedProperty: IC50

Below are worked cases with known answers.
* N#Cc1cc(F)c(NS(=O)(=O)c2c[nH]c(-c3ncco3)c2)cc1F | 500 to 5000 nM
* N#Cc1ccc(NS(=O)(=O)c2c[nH]c(-c3ncccc3C(F)F)c2)c(F)c1 | 5000 to 50000 nM
* Cc1cc(NS(=O)(=O)c2c[nH]c(-c3ccccn3)c2)c(F)cc1C#N | 500 to 5000 nM
* N#Cc1ccc(NS(=O)(=O)c2c[nH]c(-c3cc(F)cc(Cl)c3)c2)c(F)c1 | 500 to 5000 nM
* Cc1nc(C(F)(F)F)ccc1NS(=O)(=O)c1c[nH]c(-c2ccccc2)c1 | 500 to 5000 nM
* COc1cc(OC(F)F)cnc1NS(=O)(=O)c1c[nH]c(-c2ccccc2)c1 | 500 to 5000 nM

Param readout= IC50; system= human GPR17 receptor (Homo sapiens, UniProt Q13304); entry= `O=S(=O)(Nc1cc(F)c(C(F)(F)F)cc1F)c1c[nH]c(-c2ccc(Cl)cc2F)c1` ; returns value. 5000 to 50000 nM

Next up: `N#Cc1ccc(NS(=O)(=O)c2cc(-c3ccccc3)[nH]c2F)c(F)c1` 500 to 5000 nM

Same for `CC(C)Oc1cc(F)c(NS(=O)(=O)c2c[nH]c(-c3ccccn3)c2)cc1F` 5000 to 50000 nM
